Origin of measurements: PubChem BioAssay AID568

biological target: Heat shock cognate 71 kDa protein (Homo sapiens); test: Hsc70 inhibitors, probe displacement, primary screen, biochemical, fluorescence polarization (AID 568); conditions: mP, at 20 µM, stronger effect = higher value
The campaign covered roughly 83,000 compounds. Fewer than 10 were called active. A selection follows. Potency and affinity values are given separately.
measure name: displacement (%)

INSERT INTO assay_data (compound, unit_descriptor, measurement) VALUES
  ('COc1ccc(Br)cc1CNC(=O)C1CCCN(S(C)(=O)=O)C1 (stereo not given)', '%', -2),
  ('O=C1OCC(Cn2c3ccccc3c3ccccc32)O1 (stereo not given)', '%', 4.8),
  ('CC(C)(C)C(=O)CNS(=O)(=O)c1ccc(S(=O)(=O)NC2CCCC2)cc1', '%', 2.7),
  ('Cc1ccc(C(=O)Nc2cc(=O)n(C)c(=O)n2C)o1', '%', 5.3),
  ('CCOC(=O)N1CCC(N2C(=O)c3ccccc3C2Nc2ccc(Cl)cn2)CC1 (stereo not given)', '%', 0),
  ('CC(C)(C)c1ccc(-c2nnc(SCCN3C(=O)c4ccccc4C3=O)o2)cc1', '%', -4.1),
  ('O=C(CN1C(=O)c2cccc3cccc1c23)N1CCN(Cc2ccc3c(c2)OCO3)CC1', '%', -5.5),
  ('CC1(C)Cc2c(c(N3CCOCC3)nc3sc4c(=O)[nH]cnc4c23)CS1', '%', -5),
  ('CCOC(=O)c1cccc(N2C(=O)C3C(C(=O)NC4CC4)C4(C)C=CC3(O4)C2C(=O)NC(C)(C)C)c1 (stereo not given)', '%', 0.8),
  ('Cc1ccc(NCc2nnc(SCC(=O)OC3CCCCC3)o2)c(C)c1', '%', -6.7);

----------
List of displacement values.
molecular target: Heat shock cognate 71 kDa protein (Homo sapiens); assay: Hsc70 inhibitors, probe displacement, primary screen, biochemical, fluorescence polarization (AID 568); details: mP, at 20 µM, stronger effect = higher value
In all, about 83,000 compounds went through this assay and fewer than 10 were called active. These entries were drawn from the full list. Results with a measured potency or affinity are listed apart.
measure name: displacement (%)

INSERT INTO measurements (molecule, measurement) VALUES
  ('CN1CCN(S(=O)(=O)c2ccc(N3CCN(S(=O)(=O)/C=C/c4ccccc4)CC3)nc2)CC1', -5.3),
  ('Cc1ccc2c(c1)N(Cc1ccc3c(c1)OCO3)C(=O)C(C)O2 (configuration not stated)', -2.1),
  ('CC(C)Cc1cc(C(=O)N2N=C(C(F)F)CC2(O)C(F)F)c2ccccc2n1 (configuration not stated)', 1.5),
  ('O=C(COC(=O)c1cccnc1)c1ccc(Cl)c(Cl)c1', -1.2),
  ('Cn1cnnc1SCCC(=O)Nc1ccc(Cl)cc1', 4.9),
  ('Cc1cc(C)cc(N(C(=O)c2ccc3c(c2)OCO3)C2C=CS(=O)(=O)C2)c1 (configuration not stated)', -3.3),
  ('Cc1ccc(C(=O)COc2nc(C)cc(C)c2C#N)cc1', 3.2),
  ('Cn1c(CNC(=O)c2cccs2)nnc1SCC(=O)Nc1ccc(Cl)cc1', 1.1),
  ('COc1ccc(NC(=O)CSc2nc3ccccc3c(=O)n2CCNC(C)=O)cc1', 1),
  ('Cc1ccc2oc(=O)c3cnn(CC(=O)NCCN4CCOCC4)c3c2c1', 2.8),
  ('O=C(CSc1nnc(-c2ccncc2)n1CC1CCCO1)NCc1ccccc1 (configuration not stated)', -0.2),
  ('CCc1cccc(NS(=O)(=O)c2ccc3c(c2)oc(=O)n3C)c1', 1.5),
  ('COCCCn1c(SCC(=O)Nc2ccc3c(c2)OCCO3)nnc1-c1ccoc1C', -9.3),
  ('CN1CCc2c(sc3c2C(=O)NC(/C=C/c2ccco2)N3)C1 (configuration not stated)', 5.2),
  ('O=C(Nc1ccncc1)c1cc(F)cc(F)c1', 3.6),
  ('N#Cc1cn(CC(=O)N2CCCC2)c2ccccc12', -2.4),
  ('COc1ccc(S(=O)(=O)N2CCSC2c2ccc(N)cc2)cc1 (configuration not stated)', 2.5),
  ('Cc1c(C(=O)OCC(=O)N2c3ccccc3CC2C)oc2ccccc12 (configuration not stated)', -0.6),
  ('COc1nc(OC)nc(N2CCCCCC2)n1', 7.4),
  ('CCCn1nnc(NC(=O)c2ccccc2Br)n1', -4.1),
  ('Cc1ccc(OC(C)C)c(CN(CCO)CCO)c1', -3.1),
  ('c1cncc(-c2nc3cc(Cc4ccc5oc(-c6cccnc6)nc5c4)ccc3o2)c1', -0.1),
  ('Cc1nnc(SCC(=O)Nc2ccc(S(=O)(=O)N3CCCCC3)cc2)s1', -3.1),
  ('CCOc1c(Cl)cc(C(=O)NCCN2CCCCC2)cc1Cl', -10.7),
  ('CCOc1ccc(S(=O)(=O)Nc2ccccc2SC)cc1', -1.7),
  ('CC(C)c1[nH]nc2c1C(Cc1ccccc1)C(C#N)=C(N)O2 (configuration not stated)', 5.2),
  ('CCOc1ccc(C(C#N)N2CCOCC2)cc1OC (configuration not stated)', -4.5),
  ('CCOC(=O)C1CCCN(CCC(=O)Nc2ccc(C)cc2)C1 (configuration not stated)', -2.2),
  ('CC(C)[C@H](NC(=O)OC(C)(C)C)c1nnc(SCc2cccc(F)c2)o1', 6.2),
  ('COc1ccc(N(CC(=O)Nc2cc(OC)ccc2OC)S(=O)(=O)c2c(C)nn(C)c2C)cc1', -0.1),
  ('CC1CCCCC1NC(=O)Cn1ncc2ccccc21 (configuration not stated)', -0.3),
  ('CCc1ccc2nc(NC3=NCN(CCOC)CN3)nc(C)c2c1', 0.7),
  ('CCC(Sc1nc2n[nH]c(C)c2c(=N)n1-c1cccc(Cl)c1C)C(=O)N(CC)CC (configuration not stated)', -7.7),
  ('CCN(CC)S(=O)(=O)c1ccc(-c2nnc(SCc3nnc(-c4ccc(C)cc4)o3)n2CC)cc1', -2.9),
  ('Cc1noc(C)c1COC(=O)CCCc1nc2ccccc2s1', 0.6),
  ('CC(C)N(C#N)c1nc(N2CCOCC2)nc(N2CCOCC2)n1', 9.4),
  ('COc1ccc(-c2nnc3sc(CCN4C(=O)c5ccccc5C4=O)nn23)cc1', -0.6),
  ('O=C(Nc1ccc(F)c(F)c1)c1cccnc1', -5.4),
  ('OC(COc1ccc2c(c1)OCO2)CN1CCc2ccccc2C1 (configuration not stated)', 1.3),
  ('Cc1ccc(OCC2Cn3c(nc4c3c(=O)n(C)c(=O)n4C)O2)cc1 (configuration not stated)', 1.1),
  ('CN(c1ccccc1)C(c1ccc(F)cc1)c1nnnn1C1CCCC1 (configuration not stated)', -4.6),
  ('CCOc1cccc(C(=O)Nc2ccc(N(CC)CC)cc2)c1', -1.7),
  ('Cc1c(NC2=NC(C)(C)Cc3ccccc32)c(=O)n(-c2ccccc2)n1C', -0.6),
  ('Cc1ccc(C)c2c1[nH]c1ccccc12', 1.5),
  ('Cc1ccc(C)c(N(CC(=O)NC2CCCC2)C(=O)CCCC(=O)Nc2ccccn2)c1', 4.6),
  ('Cc1occc1C(=O)Nc1cc(C(C)(C)C)on1', -3.1),
  ('CCCCN(C(=O)c1cc(OC)c(OC)c(OC)c1)C1=CC2CCC(C1)N2C (configuration not stated)', -2.2);

----------
target: Heat shock cognate 71 kDa protein (Homo sapiens) (UniProt P11142); assay: Hsc70 inhibitors, probe displacement, primary screen, biochemical, fluorescence polarization (AID 568); details: mP, at 20 µM, stronger effect = higher value
Sequence (P11142 whole entry, looked up): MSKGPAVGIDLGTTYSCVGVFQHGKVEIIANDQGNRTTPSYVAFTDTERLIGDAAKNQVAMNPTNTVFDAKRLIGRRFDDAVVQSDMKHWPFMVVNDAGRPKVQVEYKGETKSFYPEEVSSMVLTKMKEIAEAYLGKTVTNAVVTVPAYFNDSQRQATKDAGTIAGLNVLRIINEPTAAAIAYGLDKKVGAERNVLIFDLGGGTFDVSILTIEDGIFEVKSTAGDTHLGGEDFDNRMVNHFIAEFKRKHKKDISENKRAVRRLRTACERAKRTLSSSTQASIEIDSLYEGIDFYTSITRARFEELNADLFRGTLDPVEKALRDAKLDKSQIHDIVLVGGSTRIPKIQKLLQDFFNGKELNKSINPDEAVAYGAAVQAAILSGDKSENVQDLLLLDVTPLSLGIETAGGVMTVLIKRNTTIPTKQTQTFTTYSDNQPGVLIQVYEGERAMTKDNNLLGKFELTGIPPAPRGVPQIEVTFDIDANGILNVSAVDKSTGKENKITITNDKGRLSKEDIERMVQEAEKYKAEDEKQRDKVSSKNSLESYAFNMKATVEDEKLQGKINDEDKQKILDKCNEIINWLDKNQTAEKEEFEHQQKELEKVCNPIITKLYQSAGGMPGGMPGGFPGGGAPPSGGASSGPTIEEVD
Sequence (P11142 whole entry, looked up): as above
Out of some 83,000 compounds screened, fewer than 10 were called active. A selection follows. Potency and affinity values are given separately.
Recorded displacement, one value per entry.
measure name: displacement (%)

INSERT INTO assay_data (molecule, test_target, measure_name, measurement) VALUES
  ('CCOC(=O)c1sc(NC(=O)C2CCCO2)c(C(=O)OC)c1C (configuration not stated)', 'Heat shock cognate 71 kDa protein (Homo sapiens) (UniProt P11142)', 'displacement', 2.1),
  ('CC1CCN(c2nc(-c3ccccc3)c(C#N)c(=O)[nH]2)CC1', 'Heat shock cognate 71 kDa protein (Homo sapiens) (UniProt P11142)', 'displacement', -1.1),
  ('Cn1cc(S(=O)(=O)CC(=O)Nc2ccc3c(c2)OCCO3)c2ccccc21', 'Heat shock cognate 71 kDa protein (Homo sapiens) (UniProt P11142)', 'displacement', 7.1),
  ('COC(=O)c1c(NS(C)(=O)=O)sc2c1CCCC2', 'Heat shock cognate 71 kDa protein (Homo sapiens) (UniProt P11142)', 'displacement', 3.6),
  ('CC(C)OC(=O)C1CC=CCC1C(=O)Nc1ccc(Cl)cc1 (configuration not stated)', 'Heat shock cognate 71 kDa protein (Homo sapiens) (UniProt P11142)', 'displacement', 0.4),
  ('COCCN1C(=O)c2ccccc2C(C(=O)NCCN(C)C)C1c1ccc(F)cc1 (configuration not stated)', 'Heat shock cognate 71 kDa protein (Homo sapiens) (UniProt P11142)', 'displacement', -4.9),
  ('N#Cc1ccccc1NC(=O)CSc1nnc(-c2ccccc2O)n1-c1ccccc1', 'Heat shock cognate 71 kDa protein (Homo sapiens) (UniProt P11142)', 'displacement', -3.5),
  ('Clc1ccc(/C=N/c2c(-c3ccco3)nc3ccccn23)cc1', 'Heat shock cognate 71 kDa protein (Homo sapiens) (UniProt P11142)', 'displacement', 3.7),
  ('COc1cc(NC(=O)c2cc(C)on2)cc(OC)c1OC', 'Heat shock cognate 71 kDa protein (Homo sapiens) (UniProt P11142)', 'displacement', 8),
  ('CCN1C(=O)Cc2cc(S(=O)(=O)N3CCOCC3)ccc21', 'Heat shock cognate 71 kDa protein (Homo sapiens) (UniProt P11142)', 'displacement', 7),
  ('CCCC1CCC(C2=N/C(=C\c3ccc(OC)c(OC)c3)C(=O)O2)CC1 (configuration not stated)', 'Heat shock cognate 71 kDa protein (Homo sapiens) (UniProt P11142)', 'displacement', -5),
  ('Cc1c(/C=C/C(=O)c2cccs2)cnn1C', 'Heat shock cognate 71 kDa protein (Homo sapiens) (UniProt P11142)', 'displacement', 0.7),
  ('COc1ccc(Br)cc1CNC(=O)CCc1nc(-c2ccccc2F)no1', 'Heat shock cognate 71 kDa protein (Homo sapiens) (UniProt P11142)', 'displacement', 0),
  ('COc1ccc(-c2nc(CS(=O)CC(=O)NCc3cccnc3)c(C)o2)cc1 (configuration not stated)', 'Heat shock cognate 71 kDa protein (Homo sapiens) (UniProt P11142)', 'displacement', 1.8),
  ('CSc1nn(CCc2ccncc2)c(=S)s1', 'Heat shock cognate 71 kDa protein (Homo sapiens) (UniProt P11142)', 'displacement', -0.7),
  ('CNS(=O)(=O)c1cccc2cccnc12', 'Heat shock cognate 71 kDa protein (Homo sapiens) (UniProt P11142)', 'displacement', 5.1),
  ('NC(=O)c1ccccc1N/C=C/C(=O)c1ccco1', 'Heat shock cognate 71 kDa protein (Homo sapiens) (UniProt P11142)', 'displacement', 5.3),
  ('CCn1c(=O)n(CC)c2cc(S(=O)(=O)Nc3ccccc3C)c(C)cc21', 'Heat shock cognate 71 kDa protein (Homo sapiens) (UniProt P11142)', 'displacement', 0.5),
  ('Cn1c(SCc2ccc(F)cc2)nnc1-c1cccs1', 'Heat shock cognate 71 kDa protein (Homo sapiens) (UniProt P11142)', 'displacement', -5),
  ('COc1ccc(S(=O)(=O)NCC2CCC(C(=O)N3CCC4(CC3)OCCO4)CC2)cc1 (configuration not stated)', 'Heat shock cognate 71 kDa protein (Homo sapiens) (UniProt P11142)', 'displacement', -1.2),
  ('Cc1ccc(-c2nn3c(-c4ccco4)nnc3c3ccccc23)cc1S(=O)(=O)NCC1CCCO1 (configuration not stated)', 'Heat shock cognate 71 kDa protein (Homo sapiens) (UniProt P11142)', 'displacement', 1),
  ('CC1=CN2C(=NC(=O)CC2(C)C(=O)N(CC(=O)NC2CCCC2)c2ccccc2C)C=C1 (configuration not stated)', 'Heat shock cognate 71 kDa protein (Homo sapiens) (UniProt P11142)', 'displacement', -1.4),
  ('O=C(Cn1cnc2c(nnn2Cc2ccccc2)c1=O)N1CCCc2ccccc21', 'Heat shock cognate 71 kDa protein (Homo sapiens) (UniProt P11142)', 'displacement', 2),
  ('Oc1c(Cl)cc(Cl)c2c1NCCC2', 'Heat shock cognate 71 kDa protein (Homo sapiens) (UniProt P11142)', 'displacement', 1),
  ('CCOC(=O)CCSCC(=O)Nc1cc(C)on1', 'Heat shock cognate 71 kDa protein (Homo sapiens) (UniProt P11142)', 'displacement', 4.3),
  ('COC(=O)c1ccc(OCC(=O)c2ccccc2OC)cc1', 'Heat shock cognate 71 kDa protein (Homo sapiens) (UniProt P11142)', 'displacement', 2.4),
  ('Cc1ccc(C)c(-n2c(SCC(=O)NCC3CCCO3)nnc2-c2ccoc2C)c1 (configuration not stated)', 'Heat shock cognate 71 kDa protein (Homo sapiens) (UniProt P11142)', 'displacement', -2.3),
  ('O=C(CCCn1c(=S)[nH]c2cc3c(cc2c1=O)OCO3)N1CCN(c2ccccn2)CC1', 'Heat shock cognate 71 kDa protein (Homo sapiens) (UniProt P11142)', 'displacement', -4.4),
  ('CCC(=O)N(Cc1cc2ccccc2[nH]c1=O)C(C)C', 'Heat shock cognate 71 kDa protein (Homo sapiens) (UniProt P11142)', 'displacement', 7),
  ('CC(=O)NCCc1ccc(S(=O)(=O)NC2OC(=O)c3ccccc32)cc1 (configuration not stated)', 'Heat shock cognate 71 kDa protein (Homo sapiens) (UniProt P11142)', 'displacement', -3.3),
  ('O=C(CSc1nnc(Cn2c(=O)sc3ccccc32)n1CCc1ccccc1)N1CCCC1', 'Heat shock cognate 71 kDa protein (Homo sapiens) (UniProt P11142)', 'displacement', 1.9),
  ('CN=C1SC(CC(=O)Nc2cccc(Cl)c2Cl)C(=O)N1C (configuration not stated)', 'Heat shock cognate 71 kDa protein (Homo sapiens) (UniProt P11142)', 'displacement', 0),
  ('CC1(c2ccc(OC(F)F)cc2)NC(=O)N(CC(=O)Nc2ccc3c(c2)OCO3)C1=O (configuration not stated)', 'Heat shock cognate 71 kDa protein (Homo sapiens) (UniProt P11142)', 'displacement', -2.6),
  ('O=C(c1cccc(S(=O)(=O)N2CCCCC2)c1)N1CCN(S(=O)(=O)c2ccc(F)cc2)CC1', 'Heat shock cognate 71 kDa protein (Homo sapiens) (UniProt P11142)', 'displacement', 7.4),
  ('Cc1ccccc1NC(=O)Cn1cccc1', 'Heat shock cognate 71 kDa protein (Homo sapiens) (UniProt P11142)', 'displacement', -0.7),
  ('Oc1ccccc1-c1cc(-c2ccco2)[nH]n1', 'Heat shock cognate 71 kDa protein (Homo sapiens) (UniProt P11142)', 'displacement', 1.3),
  ('CCN1CCN(C(=O)c2sc3nc(C)nc(N4CCC(C)CC4)c3c2C)CC1', 'Heat shock cognate 71 kDa protein (Homo sapiens) (UniProt P11142)', 'displacement', -3.6);
